Experiment: Liver microsomal stability, human
Format: in vitro ADME
Conditions: both sexes, pooled liver microsomes, pH 7.4, substrate 10 µM, protein 0.5 mg/mL, n = 2, read-out: % Remaining at 30 min
Experimental: Pooled liver microsomes from CD1 mouse, IGS Sprague-Dawley rat, Beagle dog, and mixed gender human were used for assays. Incubations (1 mL) consisted of liver microsomes (0.5 mg/mL), NADPH (1 mM) and 100 mM sodium phosphate buffer (pH 7.4). Following pre-incubation (10 min, 37 °C), reactions were initiated by spiking ACN/DMSO (80:20) stock solutions of GE phenolics (5 μL, 10 μM). […]
measured_property: remaining at 0.5 h, 10 µM (%)

Example results:
>>> quantitative_readout("CCCCCCCC(O)CC(=O)CCc1ccc(O)c(OC)c1 (stereo not shown) [8G, 8-gingerol]")
1
>>> quantitative_readout("CCCCCCCCCC(O)CC(=O)CCc1ccc(O)c(OC)c1 (stereo not shown) [10G, 10-gingerol]")
22

[P] CCCCC[C@H](O)CC(=O)CCc1ccc(O)c(OC)c1 [6G, 6-gingerol]
[Q] CCCCC/C=C/C(=O)CCc1ccc(O)c(OC)c1 [6S, 6-shogaol]
Incoming: Please indicate which entry, P or Q , has the lower recorded remaining at 0.5 h, 10 µM value. Choose, then provide that item's label.
Outgoing: Q
(Q: 1%, P: 56%)

----------
Assay: Mouse pharmacokinetic study of oral GE with and without ketoconazole, plasma with and without β-glucuronidase treatment
Format: in vivo, male mice (C57BL6J)
Details: male, C57BL6J; mouse plasma; 250 mg/kg GE oral; 8 h; −βgd
Description: A solution formulation of GE was prepared by using 5% ethanol, 5% Tween 80, 40% polyethylene glycol, and 50% corn oil. The dose volume was 10 mL/kg and the dose administered was 250 mg/kg GE. […] To confirm the presence of GE glucuronide conjugates, plasma (100 μL) was treated with βgd (20 μL, 500 units) and incubated at 37 °C for 1 h. Each sample was analyzed twice with and without β-gd treatment. […]
measured_property: concentration at 8 h (ng/mL)

>>> quantitative_readout("CCCCC[C@H](O)CC(=O)CCc1ccc(O)c(OC)c1")
0.77

[P] CCCCCCCC(O)CC(=O)CCc1ccc(O)c(OC)c1 (stereo not shown)
[Q] CCCCCCCCCC(O)CC(=O)CCc1ccc(O)c(OC)c1 (stereo not shown) [10G, 10-gingerol]
[R] CCCCC/C=C/C(=O)CCc1ccc(O)c(OC)c1
Incoming: Place the items in sequence of falling concentration at 8 h. Thanks in advance for listing the labels in the requested order.
Outgoing: Q, P, R
(Q: 5.04 ng/mL, P: 0.57 ng/mL, R: 0.05 ng/mL)

----------
assay: Liver microsomal stability, human; type: in vitro ADME; details: human liver microsomes; substrate 10 µM; protein 0.5 mg/mL; 45 mg protein/g liver
measured_property: Intrinsic Clearance (mL/min/g Liver)

>>> quantitative_readout("CCCCC/C=C/C(=O)CCc1ccc(O)c(OC)c1 [6S, 6-shogaol]")
8.4
>>> quantitative_readout("CCCCC[C@H](O)CC(=O)CCc1ccc(O)c(OC)c1 [6G, 6-gingerol]")
6.6
>>> quantitative_readout("CCCCCCCC(O)CC(=O)CCc1ccc(O)c(OC)c1 (stereo not shown) [8G, 8-gingerol]")
8.5
>>> quantitative_readout("CCCCCCCCCC(O)CC(=O)CCc1ccc(O)c(OC)c1 (stereo not shown) [10G, 10-gingerol]")
6.7

----------
experiment: Mouse pharmacokinetic study of oral GE with and without ketoconazole, plasma with and without β-glucuronidase treatment; assay type: in vivo, male mice (C57BL6J); details: male, C57BL6J, mouse, plasma, po, 250 mg/kg, mouse, 250 mg/kg GE + 50 mg/kg KTZ oral; +KTZ −βgd
measured_property: Cmax (ng/mL)

Example results:
>>> quantitative_readout("CCCCCCCCCC(O)CC(=O)CCc1ccc(O)c(OC)c1 (stereo not shown) [10G, 10-gingerol]")
79
>>> quantitative_readout("CCCCC[C@H](O)CC(=O)CCc1ccc(O)c(OC)c1")
257

[a] CCCCC/C=C/C(=O)CCc1ccc(O)c(OC)c1
[b] CCCCCCCC(O)CC(=O)CCc1ccc(O)c(OC)c1 (stereo not shown)
Incoming: Please indicate which entry, a or b , has the lower recorded Cmax value. Choose, then provide that item's label.
Outgoing: a
(a: 12.4 ng/mL, b: 45.7 ng/mL)

----------
experiment: Mouse pharmacokinetic study of oral GE with and without ketoconazole, plasma with and without β-glucuronidase treatment; type: in vivo, male mice (C57BL6J); conditions: male, C57BL6J, mouse, plasma, po, 250 mg/kg, mouse, 250 mg/kg GE + 50 mg/kg KTZ oral; +KTZ −βgd
measured_property: Tmax (min)

Example results:
>>> quantitative_readout("CCCCC[C@H](O)CC(=O)CCc1ccc(O)c(OC)c1")
30
>>> quantitative_readout("CCCCCCCC(O)CC(=O)CCc1ccc(O)c(OC)c1 (stereo not shown)")
30

[P] CCCCCCCCCC(O)CC(=O)CCc1ccc(O)c(OC)c1 (stereo not shown) [10G, 10-gingerol]
[Q] CCCCC/C=C/C(=O)CCc1ccc(O)c(OC)c1
Incoming: Please indicate which entry, P or Q , has the lower recorded Tmax value. Choose, then provide that item's label.
Outgoing: P

----------
experiment: Mouse pharmacokinetic study of oral GE with and without ketoconazole, plasma with and without β-glucuronidase treatment; assay type: in vivo, male mice (C57BL6J); conditions: +KTZ +βgd; reference GE group co-administered with KTZ untreated with βgd
measured_property: AUClast Ratio

Example results:
>>> quantitative_readout("CCCCCCCCCC(O)CC(=O)CCc1ccc(O)c(OC)c1 (stereo not shown) [10G, 10-gingerol]")
11
>>> quantitative_readout("CCCCC[C@H](O)CC(=O)CCc1ccc(O)c(OC)c1")
63

[a] CCCCC/C=C/C(=O)CCc1ccc(O)c(OC)c1
[b] CCCCCCCC(O)CC(=O)CCc1ccc(O)c(OC)c1 (stereo not shown)
Incoming: Please indicate which entry, a or b , has the lower recorded AUClast Ratio value. Choose, then provide that item's label.
Outgoing: a
(a: 14, b: 23)

----------
assay: Mouse pharmacokinetic study of oral GE with and without ketoconazole, plasma with and without β-glucuronidase treatment; assay type: in vivo, male mice (C57BL6J); conditions: male, C57BL6J; mouse plasma; 250 mg/kg GE oral; 0.167 h; −βgd
measured_property: concentration at 0.167 h (ng/mL)

[1] CCCCCCCCCC(O)CC(=O)CCc1ccc(O)c(OC)c1 (stereo not shown) [10G, 10-gingerol]
[2] CCCCCCCC(O)CC(=O)CCc1ccc(O)c(OC)c1 (stereo not shown)
[3] CCCCC/C=C/C(=O)CCc1ccc(O)c(OC)c1
[4] CCCCC[C@H](O)CC(=O)CCc1ccc(O)c(OC)c1
Incoming: Arrange these compounds by their concentration at 0.167 h, starting with the largest number. Thanks in advance for listing the labels in the requested order.
Outgoing: 1, 3, 2, 4

----------
assay: Mouse pharmacokinetic study of oral GE with and without ketoconazole, plasma with and without β-glucuronidase treatment; format: in vivo, male mice (C57BL6J); conditions: male, C57BL6J; mouse plasma; 250 mg/kg GE oral; 6 h; −βgd
measured_property: concentration at 6 h (ng/mL)

Example results:
>>> quantitative_readout("CCCCC/C=C/C(=O)CCc1ccc(O)c(OC)c1")
0
>>> quantitative_readout("CCCCC[C@H](O)CC(=O)CCc1ccc(O)c(OC)c1")
3.22

[1] CCCCCCCCCC(O)CC(=O)CCc1ccc(O)c(OC)c1 (stereo not shown) [10G, 10-gingerol]
[2] CCCCCCCC(O)CC(=O)CCc1ccc(O)c(OC)c1 (stereo not shown)
Incoming: Which is greater in concentration at 6 h, the first item 1 or the second item 2 ? Choose, then provide that item's label.
Outgoing: 1
(1: 2.43 ng/mL, 2: 0.49 ng/mL)

----------
assay: Mouse pharmacokinetic study of oral GE with and without ketoconazole, plasma with and without β-glucuronidase treatment; assay type: in vivo, male mice (C57BL6J); details: male, C57BL6J, mouse, plasma, po, 250 mg/kg, 250 mg/kg GE oral; −βgd
measured_property: Tmax (min)

>>> quantitative_readout("CCCCC[C@H](O)CC(=O)CCc1ccc(O)c(OC)c1")
120

[1] CCCCCCCCCC(O)CC(=O)CCc1ccc(O)c(OC)c1 (stereo not drawn) [10G, 10-gingerol]
[2] CCCCC/C=C/C(=O)CCc1ccc(O)c(OC)c1
Incoming: Please indicate which entry, 1 or 2 , has the lower recorded Tmax value. Choose, then provide that item's label.
Outgoing: 2

----------
assay: Mouse pharmacokinetic study of oral GE with and without ketoconazole, plasma with and without β-glucuronidase treatment; assay type: in vivo, male mice (C57BL6J); details: male, C57BL6J, mouse, plasma, po, 250 mg/kg, 250 mg/kg GE oral; −βgd
measured_property: Cmax (ng/mL)

>>> quantitative_readout("CCCCC/C=C/C(=O)CCc1ccc(O)c(OC)c1")
3.88

[A] CCCCCCCCCC(O)CC(=O)CCc1ccc(O)c(OC)c1 (stereo not drawn) [10G, 10-gingerol]
[B] CCCCC[C@H](O)CC(=O)CCc1ccc(O)c(OC)c1
Incoming: Which is greater in Cmax, the first item A or the second item B ? Choose, then provide that item's label.
Outgoing: A
